Form field: z-score (one value per entry).
- method.notes: E. coli growth modulation, two-sided OD650, primary screen, E. coli filamentation project, strain DRC41, 24 h (AID 1093);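 further: MC1000 strain lacking acrAB efflux and sulA so SOS filamentation is blocked; test concentration not given here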
- measurement.parameters: OD650, 24 h, higher = more signal, called active from +8 up or from −8 down
Could you respond with only the numeric value?

Some solved entries appear below for comparison.
* COC(=O)[C@@H]1CC[C@H](C)[C@@H](c2ccc(Br)cc2)N1 | 0.532
* CC(CCN1CCCc2nc(C)c(C)cc21)=NOC[C@@H](O)COCc1ccco1 | 0.798
* Cc1cc(C)c(-c2cc([C@H](C)ON=C[C@@H](C)[C@H](OCc3ccccc3)C(C)C)on2)c(C)c1 | -0.461
* COC(=O)[C@H](C)NC(=O)CC=C[C@@H](C)[C@@H]1C=C[C@H](O)[C@@H](CO)O1 | 1.02
* COc1ccc(O[C@H]2C=C[C@@H](c3ccccc3)O[C@@H]2CO)cc1 | 0.299

QUERY: Please list z-score recorded for the molecule `O=C1[C@H]2[C@H]3[C@H](O)[C@H](O)CC(=NOC[C@@H](O)COCc4ccco4)[C@@H]3CC[C@H]2C(=O)N1Cc1ccc2c(c1)OCO2`
RESULT: 2.06

QUERY: Please list z-score recorded for the molecule `Cc1ccc2[nH]c3nc(CCCn4ccnc4-c4ccccc4)nnc3c2c1`
RESULT: 1.13

QUERY: Please list z-score recorded for the molecule `C#CCCCON=C1C[C@@H](O)[C@@H](O)[C@@H]2[C@@H]3C(=O)N(C4CCCCC4)C(=O)[C@@H]3CC[C@@H]12`
RESULT: 0.862

QUERY: Please list z-score recorded for the molecule `O=C1[C@H]2[C@H]3[C@H](O)[C@H](O)CC(=NO[C@@H]4O[C@H](CO)[C@@H](O)[C@H](O)[C@H]4O)[C@H]3CC[C@H]2C(=O)N1c1ccc(F)cc1F`
RESULT: 0.356

QUERY: Please list z-score recorded for the molecule COC(=O)[C@H](C)NC(=O)CCC1CC(OC(=O)NCCc2ccc(F)cc2)CC2(CCCC(COC(=O)NCCc3ccccc3OC)O2)O1 (stereo partly specified)
RESULT: -0.0328

QUERY: Please list z-score recorded for the molecule `CC(C)(C)N1C(=O)[C@H]2[C@H]3[C@H](O)[C@H](O)CC(=NOC[C@@H](O)COCc4ccco4)[C@@H]3CC[C@H]2C1=O`
RESULT: 0.635

Provenance of the data: PubChem BioAssay
